experiment: Binding affinity at delta opioid receptor in guinea pig brain by [3H]c[D-Pen2, p-Cl-Phe4, D-Pen5]-enkephalin displacement.
A collection of compounds and their measured log10 IC50
PROPERTY NAME: log10 IC50 (log10 of the value in nM)

>>> test_result("CC[C@H](C)[C@@H]1NC(=O)[C@H](CCCN=C(N)N)NC(=O)[C@H](CCCN=C(N)N)NC(=O)[C@H](NC(=O)[C@H](Cc2ccccc2)NC(=O)CNC(=O)CNC(=O)[C@@H](N)Cc2ccc(O)cc2)C(C)(C)SSC[C@H](C(N)=O)NC(=O)[C@@H]2CCCN2C(=O)[C@H](CCCN=C(N)N)NC1=O")
2.59
>>> test_result("CC[C@H](C)[C@@H]1NC(=O)[C@H](CCCN=C(N)N)NC(=O)[C@H](CCCN=C(N)N)NC(=O)[C@@H](NC(=O)[C@H](Cc2ccccc2)NC(=O)CNC(=O)CNC(=O)[C@@H](N)Cc2ccc(O)cc2)C(C)(C)SSC(C)(C)[C@@H](C(N)=O)NC(=O)[C@@H]2CCCN2C(=O)[C@H](CCCN=C(N)N)NC1=O")
2.39
>>> test_result("CC[C@H](C)[C@@H]1NC(=O)[C@H](CCCN=C(N)N)NC(=O)[C@H](CCCN=C(N)N)NC(=O)[C@H](NC(=O)[C@H](Cc2ccccc2)NC(=O)CNC(=O)CNC(=O)[C@@H](N)Cc2ccc(O)cc2)CSSC[C@H](C(N)=O)NC(=O)[C@@H]2CCCN2C(=O)[C@H](CCCN=C(N)N)NC1=O")
3.01
>>> test_result("CC[C@H](C)[C@@H]1NC(=O)[C@H](CCCN=C(N)N)NC(=O)[C@H](CCCN=C(N)N)NC(=O)[C@@H](NC(=O)[C@H](Cc2ccccc2)NC(=O)CNC(=O)CNC(=O)[C@@H](N)Cc2ccc(O)cc2)CSSC(C)(C)[C@@H](C(N)=O)NC(=O)[C@@H]2CCCN2C(=O)[C@H](CCCN=C(N)N)NC1=O")
1.20
>>> test_result("CC[C@H](C)[C@@H]1NC(=O)[C@H](CCCNC(=N)N)NC(=O)[C@H](CCCNC(=N)N)NC(=O)[C@@H](NC(=O)[C@H](Cc2ccccc2)NC(=O)CNC(=O)CNC(=O)[C@@H](N)Cc2ccc(O)cc2)CSSC[C@@H](C(N)=O)NC(=O)[C@@H]2CCCN2C(=O)[C@H](CCCNC(=N)N)NC1=O")
3.24
>>> test_result("CC[C@H](C)[C@@H]1NC(=O)[C@H](CCCN=C(N)N)NC(=O)[C@H](CCCN=C(N)N)NC(=O)[C@H](NC(=O)[C@H](Cc2ccccc2)NC(=O)CNC(=O)CNC(=O)[C@@H](N)Cc2ccc(O)cc2)CSSC[C@@H](C(N)=O)NC(=O)[C@@H]2CCCN2C(=O)[C@H](CCCN=C(N)N)NC1=O")
3.00
>>> test_result("CC[C@H](C)[C@@H]1NC(=O)[C@H](CCCN=C(N)N)NC(=O)[C@H](CCCN=C(N)N)NC(=O)[C@H](NC(=O)[C@H](Cc2ccccc2)NC(=O)CNC(=O)CNC(=O)[C@@H](N)Cc2ccc(O)cc2)C(C)(C)SSC[C@@H](C(N)=O)NC(=O)[C@@H]2CCCN2C(=O)[C@H](CCCN=C(N)N)NC1=O")
3.30
>>> test_result("CC[C@H](C)[C@@H]1NC(=O)[C@H](CCCN=C(N)N)NC(=O)[C@H](CCCN=C(N)N)NC(=O)[C@@H](NC(=O)[C@H](Cc2ccccc2)NC(=O)CNC(=O)CNC(=O)[C@@H](N)Cc2ccc(O)cc2)C(C)(C)SSC[C@@H](C(N)=O)NC(=O)[C@@H]2CCCN2C(=O)[C@H](CCCN=C(N)N)NC1=O")
2.38
>>> test_result("CC[C@H](C)[C@@H]1NC(=O)[C@H](CCCN=C(N)N)NC(=O)[C@H](CCCN=C(N)N)NC(=O)[C@H](NC(=O)[C@H](Cc2ccccc2)NC(=O)CNC(=O)CNC(=O)[C@@H](N)Cc2ccc(O)cc2)CSSC(C)(C)[C@H](C(N)=O)NC(=O)[C@@H]2CCCN2C(=O)[C@H](CCCN=C(N)N)NC1=O")
3.14
>>> test_result("CC[C@H](C)[C@@H]1NC(=O)[C@H](CCCN=C(N)N)NC(=O)[C@H](CCCN=C(N)N)NC(=O)[C@H](NC(=O)[C@H](Cc2ccccc2)NC(=O)CNC(=O)CNC(=O)[C@@H](N)Cc2ccc(O)cc2)C(C)(C)SSC(C)(C)[C@@H](C(N)=O)NC(=O)[C@@H]2CCCN2C(=O)[C@H](CCCN=C(N)N)NC1=O")
3.13
>>> test_result("CC[C@H](C)[C@@H]1NC(=O)[C@H](CCCN=C(N)N)NC(=O)[C@H](CCCN=C(N)N)NC(=O)[C@@H](NC(=O)[C@H](Cc2ccccc2)NC(=O)CNC(=O)CNC(=O)[C@@H](N)Cc2ccc(O)cc2)C(C)(C)SSC(C)(C)[C@H](C(N)=O)NC(=O)[C@@H]2CCCN2C(=O)[C@H](CCCN=C(N)N)NC1=O")
2.86
>>> test_result("CC[C@H](C)[C@@H]1NC(=O)[C@H](CCCN=C(N)N)NC(=O)[C@H](CCCN=C(N)N)NC(=O)[C@@H](NC(=O)[C@H](Cc2ccccc2)NC(=O)CNC(=O)CNC(=O)[C@@H](N)Cc2ccc(O)cc2)CSSC[C@H](C(N)=O)NC(=O)[C@@H]2CCCN2C(=O)[C@H](CCCN=C(N)N)NC1=O")
1.15
>>> test_result("CC[C@H](C)[C@@H]1NC(=O)[C@H](CCCN=C(N)N)NC(=O)[C@H](CCCN=C(N)N)NC(=O)[C@@H](NC(=O)[C@H](Cc2ccccc2)NC(=O)CNC(=O)CNC(=O)[C@@H](N)Cc2ccc(O)cc2)CSSC(C)(C)[C@H](C(N)=O)NC(=O)[C@@H]2CCCN2C(=O)[C@H](CCCN=C(N)N)NC1=O")
2.50
